- experimental-target: hH3R (Homo sapiens, UniProt Q9Y5N1)
- Sequence (Q9Y5N1 whole entry): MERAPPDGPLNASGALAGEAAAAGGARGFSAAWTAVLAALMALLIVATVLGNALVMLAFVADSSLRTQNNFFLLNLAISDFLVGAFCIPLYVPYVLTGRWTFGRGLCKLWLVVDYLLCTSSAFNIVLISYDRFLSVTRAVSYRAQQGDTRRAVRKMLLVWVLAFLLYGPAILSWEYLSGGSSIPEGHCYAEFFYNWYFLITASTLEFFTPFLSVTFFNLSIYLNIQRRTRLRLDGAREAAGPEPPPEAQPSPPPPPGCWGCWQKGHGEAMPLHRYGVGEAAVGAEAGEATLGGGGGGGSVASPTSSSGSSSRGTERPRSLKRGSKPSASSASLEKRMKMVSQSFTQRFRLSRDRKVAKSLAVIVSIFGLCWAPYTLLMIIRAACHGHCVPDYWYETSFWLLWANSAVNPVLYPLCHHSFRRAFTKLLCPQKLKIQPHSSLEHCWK
parameter: Kd (nM)
Provide the reading as a plain figure in nM.

So, CNCCc1cnc[nH]1 [[^3H] N^α-MeHA, [^3H]N^α-methylhistamine] ? Its Kd was 2.98
